Cited source for all entries: PubChem BioAssay (NCATS)

# assay info: Confirmatory qHTS for small molecule stabilizers of the endoplasmic reticulum resident proteome: Secreted ER Calcium Modulated Protein (SERCaMP) assay (AID 1508628); note: nearly all actives have a fitted effect of over 40% in size
# applied conditions: SERCaMP secreted luciferase ER calcium/proteostasis reporter; series mostly up to 76.3 µM
# Excerpt: Assay Provider: Brandon K. Harvey Ph.D. National Institute on Drug Abuse, National Institutes of Health, Baltimore, MD Endoplasmic reticulum (ER) dysregulation is associated with human pathologies including neurodegenerative, cardiovascular, muscular, and diabetic conditions. […] To identify such compounds, we performed a quantitative high-throughput screen (qHTS) using the SERCaMP assay, which monitors secretion of ER resident proteins triggered by calcium depletion. […]
Results filed as inconclusive are left out. Activity calls are given as the source filed them. Calls come from the whole dose curve; as a rule, active = well fitted inhibition curve with a large enough effect; inconclusive = small, poorly fitted or top-dose-only effect; inactive = no such curve, though single readings can be large or run the other way.
Please answer using one outcome listed in 1.0 = active, 0.0 = inactive

INPUT: Please state the recorded outcome for this compound: CN1CCN(c2ccc([N+](=O)[O-])c3no[n+]([O-])c23)CC1
OUTPUT: 0.0

INPUT: Lookup NCc1cc(=O)[nH]o1
OUTPUT: 0.0

INPUT: Lookup C[C@H]1CCCC=CC2C[C@H](O)C[C@@H]2[C@H](O)C=CC(=O)O1 (some centres not stated)
OUTPUT: 0.0

INPUT: Lookup O=[N+]([O-])c1c2ccccc2cc2ccccc12
OUTPUT: 0.0

INPUT: Lookup Nc1ccc(N=Nc2ccccc2)cc1
OUTPUT: 1.0

INPUT: Lookup Clc1ccc(C(c2ccc(Cl)cc2)n2cc[n+](CC(OCc3ccc(Cl)cc3Cl)c3ccc(Cl)cc3Cl)c2)cc1 (configuration not stated)
OUTPUT: 0.0

INPUT: Lookup Nc1c(Cl)c(Cl)c(Cl)c(Cl)c1Cl
OUTPUT: 0.0
